experiment: Animal PK, NCA parameters, dog; conditions: in vivo
endpoint_label: bioavailability

Nc1ncn(C2CC(O)C(CO)S2)c(=O)n1 (stereo not shown) yielded bioavailability of 68.7%

---

assay: Mouse PK (AUC); type: in vivo; settings: in vivo, oral, 0.8 mg/kg; mouse, 0.8 mpk
endpoint_label: AUC (ng·h/mL)
Answers are plain numbers, in ng·h/mL.

For reference, reported AUC for Nc1ncn(C2CC(O)C(CO)S2)c(=O)n1 (stereo not shown) stands at 109

---

assay: Animal PK, NCA parameters, rat; conditions: in vivo, iv, 1 mg/kg
Answer each item with its documented Vd.
Answers are plain numbers, in L/kg.

{"compound": "Nc1ncn([C@H]2C[C@H](O)[C@@H](CO)O2)c(=O)n1 [decitabine, reference compound]", "endpoint_value": 2.16}

Below: the item to evaluate.
Lab book: Vd of Nc1ncn(C2CC(O)C(CO)S2)c(=O)n1 (centres unmarked) noted as 3.53
